Exercise: for every item that follows, state its recorded protein stability index.
B1: KLHL14 (parent)
chain: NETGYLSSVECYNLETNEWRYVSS

- Variants of: B1
- protocol.details: protein stability index of a GFP-peptide fusion (GPS, HEK-293T) (PSI 1-6); higher = more stable;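 also: lentivirally expressed fusions sorted by FACS into six bins by GFP to DsRed ratio, PSI derived from sequencing read proportions per bin multiplied by bin number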
- condition.label: c terminus: a fixed tail appended

Illustrative cases are given below, each with its answer.
1. L6N: 3.08
2. R20S: 3.04

Could you now look at the following variant, please?
-- ask Any idea what its protein stability index is? The variant is Y21H
-- reply 2.96

Data origin, for the record: the supplement of paper PMC10567573
